Test system: U2OS
Assay: Multiplex assay against U2OS
Type: toxicity, cell-based
Conditions: human, 48 h, 1 µM, compound concentration 1 uM, replicate 2
Binarize Population Mitochondria Different-Phenotype (%) at 3%; below is 1, at or above is -1.

Reference set, count: 3
>>> print(df.to_string())
                                   molecule  class_label
0  CC[C@@H](C)Nc1nc(C)nc2c(-c3ccc(OC)nc3C)c(C)nn12           -1
1  Cc1onc(-c2ccccc2Cl)c1C(=O)N(C)c1ccc(Cl)cc1            1
2  CC(=O)Nc1cccc2c1c(Sc1ccc(Cl)cc1)c(C)n2CC(=O)O            1

Problem: Quick check: does C[C@H](N)COC(=O)[C@@H](CCCCN)NC(=O)Cc1c(-c2ccc3ccccc3c2)[nH]c2c1ccc1ccccc12 have Population Mitochondria Different-Phenotype (%) under 3%?
Solution: -1

Problem: Report whether reported Population Mitochondria Different-Phenotype (%) is lower than 3% (strictly) for CN[C@@H](C)C(=O)N[C@H](C(=O)N1CCC[C@H]1C(=O)Nc1snnc1-c1ccccc1)C1CCCCC1
Solution: -1

Problem: # strict comparison: is reported Population Mitochondria Different-Phenotype (%) < 3%? input = COC[C@@H](c1ccc(C(F)(F)F)cc1)N1CCN(C2(C)CCN(C(=O)c3c(C)ncnc3C)CC2)C[C@@H]1C.O=C(O)/C=C\C(=O)O [VICRIVIROC MALEATE]
Solution: -1

Problem: Take the molecule COc1cccc2c1c(NS(=O)(=O)c1ccc(Cl)s1)nn2Cc1cccc(CNC(=O)C(C)(C)O)c1 and say whether its Population Mitochondria Different-Phenotype (%) is less than 3%.
Solution: -1

Origin of values: ChEMBL document CHEMBL5058577
